Examples of substances with documented MC1/MC4 selectivity follow.
Tested on: MC1/MC4
Details: ratio MC1/MC4

substance: Tyr-Arg-cyclo[Cys-Glu-His-D-Phe-Arg-Trp-Cys]-NH—(CH2)6—NH2 [Compound 70]
MC1/MC4 selectivity: 2.00
//
substance: Ac-Tyr-hArg-cyclo[Cys-Glu-His-D-Phe-Arg-Trp-Cys]-NH2 [Compound 126]
MC1/MC4 selectivity: 22.64
//
substance: Ac-Cit-cyclo[Cys-Glu-(1-Me-His)-D-Phe-Arg-Trp-Cys]-NH2 [Compound 56]
MC1/MC4 selectivity: 21.38
//
substance: Ac-Arg-cyclo[Cys-Glu-His-D-Phe-Arg-Trp-Cys]-OH [Compound 49]
MC1/MC4 selectivity: 35.35
//
substance: Ac-Tyr-Arg-cyclo[Cys-Glu-(β-(1,3-thiazol-4-yl)-Ala)-D-Phe-Arg-Trp-Cys]-NH2 [Compound 112]
MC1/MC4 selectivity: 5.62
//
substance: Ac-cyclo[hCys-His-D-Phe-Arg-Trp-penicillamine]-NH2 [Compound 168]
MC1/MC4 selectivity: 212.71
//
substance: Ac-Tyr-Arg-cyclo[Cys-Glu-His-D-Phe-Arg-Trp-hCys]-NH2 [Compound 192]
MC1/MC4 selectivity: 1.00
//
substance: Arg-cyclo[Cys-Glu-His-D-Phe-Arg-Trp-Cys]-OH [Compound 45]
MC1/MC4 selectivity: 30.47
//
substance: N-glutaryl-Tyr-Arg-cyclo[Cys-Glu-His-D-Phe-Arg-Trp-Cys]-OH [Compound 76]
MC1/MC4 selectivity: 6.00
//
substance: N-cyclohexanecarbonyl-cyclo[hCys-His-D-Phe-Arg-Trp-penicillamine]-NH2 [Compound 172]
MC1/MC4 selectivity: 26.45
//
substance: Ac-Arg-cyclo[Cys-Glu-His-D-Phe-Arg-Trp-Cys]-NH2 [Compound 48]
MC1/MC4 selectivity: 26.80
//
substance: Ac-Tyr-Arg-cyclo[Cys-Glu-His-(4-Me-D-Phe)-Arg-Trp-Cys]-NH2 [Compound 92]
MC1/MC4 selectivity: 12.06

====

Test system: MC1/MC4
Conditions: ratio MC1/MC4
Collected MC1/MC4 selectivity values appear next to each entry.

substance: Ac-Tyr-Arg-cyclo[Cys-Glu-His-D-Phe-Arg-Trp-Cys]-OH [Compound 73]
experimental-system: MC1/MC4
MC1/MC4 selectivity: 12.77
//
substance: Ac-Tyr-(1-β-hArg)-cyclo[Cys-Glu-His-D-Phe-Arg-Trp-Cys]-NH2 [Compound 127]
experimental-system: MC1/MC4
MC1/MC4 selectivity: 20.25
//
substance: Ac-diaminobutyryl-cyclo[Cys-Glu-His-D-Phe-Arg-Trp-Cys]-NH2 [Compound 44]
experimental-system: MC1/MC4
MC1/MC4 selectivity: 15.00
//
substance: Ac-D-Arg-cyclo[Cys-Glu-His-D-Phe-Arg-Trp-Cys]-NH2 [Compound 52]
experimental-system: MC1/MC4
MC1/MC4 selectivity: 30.54
//
substance: Ac-Tyr-Arg-cyclo[Cys-Glu-(1-pyrazolyl-Ala)-D-Phe-Arg-Trp-Cys]-NH2 [Compound 102]
experimental-system: MC1/MC4
MC1/MC4 selectivity: 4.76
//
substance: Ac-Tyr-Arg-cyclo[Cys-Glu-(β-((1-benzyl)-1,2,4-triazol-3-yl))-D-Ala)-D-Phe-Arg-Trp-Cys]-NH2 [Compound 109]
experimental-system: MC1/MC4
MC1/MC4 selectivity: 6.05
//
substance: Tyr-Arg-cyclo[Cys-Glu-His-D-Phe-Arg-Trp-Cys]-OH [Compound 69]
experimental-system: MC1/MC4
MC1/MC4 selectivity: 18.38
//
substance: Ac-Arg-cyclo[Cys-Cya-His-D-Phe-Arg-Trp-Cys]-NH2 [Compound 26]
experimental-system: MC1/MC4
MC1/MC4 selectivity: 38.90
//
substance: 5-guanidinovaleryl-cyclo[Cys-Glu-His-D-Phe-Arg-Trp-Cys]-NH2 [Compound 42]
experimental-system: MC1/MC4
MC1/MC4 selectivity: 44.63
//
substance: 4-phenylbutyryl-cyclo[hCys-His-D-Phe-Arg-Trp-penicillamine]-NH2 [Compound 174]
experimental-system: MC1/MC4
MC1/MC4 selectivity: 4.98
//
substance: Ac-Tyr-Arg-cyclo[Cys-Glu-(β-(pyridin-4-yl)-Ala)-D-Phe-Arg-Trp-Cys]-NH2 [Compound 113]
experimental-system: MC1/MC4
MC1/MC4 selectivity: 13.51
//
substance: 3-(4-hydroxyphenyl)propionyl-Arg-cyclo[Cys-Glu-His-D-Phe-Arg-Trp-Cys]-NH2 [Compound 66]
experimental-system: MC1/MC4
MC1/MC4 selectivity: 13.23
//
substance: Ac-Tyr-Arg-cyclo[Cys-Glu-(β-((1-benzyl)-1,2,4-triazol-3-yl))-D-Ala)-D-Phe-Arg-Trp-Cys]-NH2 [Compound 108]
experimental-system: MC1/MC4
MC1/MC4 selectivity: 5.99
//
substance: Ac-nLeu-cyclo[hCys-His-D-Phe-Arg-Trp-Cys]-NH2 [Compound 160]
experimental-system: MC1/MC4
MC1/MC4 selectivity: 0.90
//
substance: Ac-Arg-cyclo[Cys-Glu-His-(4-Cl-D-Phe)-Arg-Trp-Cys]-NH2 [Compound 50]
experimental-system: MC1/MC4
MC1/MC4 selectivity: 36.10

====

Test system: MC1/MC4;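 note: ratio of EC50 values obtained at MC1 versus MC4 receptors, with MC1 potency measured by luciferase reporter activity in stably transfected cells expressing human MC1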
Details: ratio MC1/MC4
Binned MC1/MC4 selectivity; ranges: lower bin = under 4, middle bin = from 4 up to 20, upper bin = 20 and over

substance: Ac-cyclo[Cys-Glu-His-(4-F-D-Phe)-Arg-Trp-Cys]-NH2 [Compound 31]
assigned-category: upper bin

substance: Ac-Tyr-Arg-cyclo[Cys-Glu-His-D-Phe-Arg-Trp-Cys]-Lys-Pro alcohol [Compound 122]
assigned-category: lower bin

substance: Arg-cyclo[hCys-(1-Me-D-His)-D-Phe-Arg-Trp-Cys]-NH2 [Compound 157]
assigned-category: middle bin

substance: N-propionyl-cyclo[Cys-Glu-His-D-Phe-Arg-Trp-Cys]-NH2 [Compound 37]
assigned-category: upper bin

substance: Ac-Tyr-Arg-cyclo[Cys-Glu-(β-(1,2,4-triazol-3-yl))-Ala)-D-Phe-Arg-Trp-Cys]-NH2 [Compound 106]
assigned-category: upper bin

substance: 4-phenylbutyryl-cyclo[hCys-His-D-Phe-Arg-Trp-Cys]-NH2 [Compound 147]
assigned-category: lower bin

substance: Ac-Tyr-Arg-cyclo[Cys-Glu-(1-Me-D-His)-D-Phe-Arg-Trp-Cys]-NH2 [Compound 82]
assigned-category: lower bin

substance: Ac-Tyr-D-Arg-cyclo[Cys-Glu-His-D-Phe-Arg-Trp-Cys]-NH2 [Compound 79]
assigned-category: upper bin

substance: N-(2-naphthalenesulfonyl)-D-Arg-cyclo[Cys-Glu-His-D-Phe-Arg-Trp-Cys]-NH2 [Compound 64]
assigned-category: middle bin

substance: Ac-Tyr-Arg-cyclo[Cys-Glu-His-(4-Br-D-Phe)-Arg-Trp-Cys]-NH2 [Compound 89]
assigned-category: upper bin

substance: N-cyclohexanecarbonyl-cyclo[hCys-His-D-Phe-Arg-Trp-Cys]-NH2 [Compound 144]
assigned-category: middle bin

substance: Ac-Tyr-Arg-cyclo[Cys-Glu-(1-benzyl-His)-D-Phe-Arg-Trp-Cys]-NH2 [Compound 99]
assigned-category: upper bin

substance: Ac-nLeu-cyclo[Cys-Glu-His-D-Phe-Arg-Trp-Cys]-Ser-Pro-NH2 [Compound 61]
assigned-category: lower bin

substance: Ac-Tyr-Arg-cyclo[Cys-Glu-(1-Bom-His)-D-Phe-Arg-Trp-Cys]-NH2 [Compound 101]
assigned-category: lower bin

substance: Ac-Tyr-Arg-cyclo[D-Cys-Glu-His-D-Phe-Arg-Trp-Cys]-NH2 [Compound 80]
assigned-category: middle bin

substance: Ac-hArg-cyclo[Cys-Glu-His-D-Phe-Arg-Trp-Cys]-NH2 [Compound 54]
assigned-category: upper bin

substance: Ac-Tyr-Arg-cyclo[Cys-Glu-(3-Me-His)-D-Phe-Arg-Trp-Cys]-NH2 [Compound 96]
assigned-category: upper bin

substance: N-glutaryl-Tyr-Arg-cyclo[Cys-Glu-His-D-Phe-Arg-Trp-Cys]-NH2 [Compound 75]
assigned-category: middle bin

substance: cyclo[Cys-Glu-His-D-Phe-Arg-Trp-Cys]-NH2 [Compound 29]
assigned-category: middle bin

substance: cyclo[3-thiopropionyl-His-D-Phe-Arg-Trp-hCys]-NH2 [Compound 179]
assigned-category: middle bin

substance: Ac-Tyr-Arg-cyclo[Cys-Glu-(1-benzyl-D-His)-D-Phe-Arg-Trp-Cys]-NH2 [Compound 100]
assigned-category: lower bin

substance: Ac-Tyr-Arg-cyclo[Cys-Glu-(4-phenyl-1H-imidazol-2-yl-D-Ala)-D-Phe-Arg-Trp-Cys]-NH2 [Compound 104]
assigned-category: lower bin

substance: Ac-Tyr-Arg-cyclo[Cys-Glu-(5-Me-D-His)-D-Phe-Arg-Trp-Cys]-NH2 [Compound 98]
assigned-category: middle bin

substance: Ac-Tyr-Arg-cyclo[Cys-Glu-(β-(1,2,4-triazol-3-yl))-D-Ala)-D-Phe-Arg-Trp-Cys]-NH2 [Compound 107]
assigned-category: lower bin

substance: 3-guanidinopropionyl-cyclo[Cys-Glu-His-D-Phe-Arg-Trp-Cys]-NH2 [Compound 40]
assigned-category: upper bin

substance: phenylsulfonyl-Gly-cyclo[hCys-His-D-Phe-Arg-Trp-Cys]-NH2 [Compound 161]
assigned-category: lower bin

substance: 3-guanidinopropionyl-cyclo[hCys-His-D-Phe-Arg-Trp-Cys]-NH2 [Compound 148]
assigned-category: upper bin

substance: Ac-Cit-cyclo[Cys-Glu-His-D-Phe-Arg-Trp-Cys]-NH2 [Compound 55]
assigned-category: upper bin

substance: N-cyclobutanecarbonyl-cyclo[hCys-His-D-Phe-Arg-Trp-Cys]-NH2 [Compound 142]
assigned-category: upper bin

substance: Ac-cyclo[Cys-His-D-Phe-Arg-Trp-hCys]-NH2 [Compound 183]
assigned-category: upper bin

substance: Tyr-Arg-cyclo[Cys-Glu-His-D-Phe-Arg-Trp-Cys]-NH2 [Compound 68]
assigned-category: middle bin

substance: Ac-Tyr-Arg-cyclo[hCys-Glu-His-D-Phe-Arg-Trp-hCys]-NH2 [Compound 197]
assigned-category: lower bin

Where do the numbers come from? From patent US20060293223A1.
